Here, each record is paired with measured inhibition at 1.11 µM data.
biological target: human VPS34 (Homo sapiens (Human), UniProt Q8NEB9); test: Human VPS34 enzyme assay (Adapta TR-FRET); assay type: biochemical; conditions: 1 h; inhibition of VPS34 at a 1.11 μM concentration; read-out: Percent Inhibition
Sequence (Q8NEB9 whole entry): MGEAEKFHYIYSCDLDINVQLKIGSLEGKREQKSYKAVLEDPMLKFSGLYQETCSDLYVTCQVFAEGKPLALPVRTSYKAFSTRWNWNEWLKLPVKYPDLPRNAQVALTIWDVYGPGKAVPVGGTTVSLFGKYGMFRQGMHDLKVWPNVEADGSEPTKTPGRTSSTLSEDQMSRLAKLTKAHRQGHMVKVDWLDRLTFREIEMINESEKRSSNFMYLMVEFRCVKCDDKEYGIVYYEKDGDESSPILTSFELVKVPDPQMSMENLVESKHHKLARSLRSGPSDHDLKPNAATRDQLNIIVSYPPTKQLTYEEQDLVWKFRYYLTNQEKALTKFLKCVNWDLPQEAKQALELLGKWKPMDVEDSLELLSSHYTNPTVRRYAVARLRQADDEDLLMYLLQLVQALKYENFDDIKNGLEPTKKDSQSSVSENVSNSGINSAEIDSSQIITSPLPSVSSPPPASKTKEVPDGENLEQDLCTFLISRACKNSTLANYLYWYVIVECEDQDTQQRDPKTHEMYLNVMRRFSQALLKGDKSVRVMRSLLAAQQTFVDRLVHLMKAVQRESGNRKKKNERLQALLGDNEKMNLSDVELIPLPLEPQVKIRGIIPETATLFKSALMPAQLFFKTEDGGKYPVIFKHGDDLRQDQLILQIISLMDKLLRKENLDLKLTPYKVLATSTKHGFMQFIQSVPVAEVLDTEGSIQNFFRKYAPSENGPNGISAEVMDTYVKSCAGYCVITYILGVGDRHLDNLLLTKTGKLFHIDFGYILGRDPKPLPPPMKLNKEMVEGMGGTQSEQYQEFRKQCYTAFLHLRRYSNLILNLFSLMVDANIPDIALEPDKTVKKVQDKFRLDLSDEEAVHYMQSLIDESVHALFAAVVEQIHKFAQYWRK

1. CC(=O)Nc1cc(-c2cnc(C)c3c2ccn3S(=O)(=O)c2ccccc2)ccn1 [Compound I-4] : > 99%
2. COC(=O)Nc1cc(-c2cnc(C)c3c2ccn3S(=O)(=O)CC(C)C)ccn1 [Compound I-15] : > 99%
3. COC(=O)Nc1cc(-c2cnc(C)c3c2ccn3S(=O)(=O)N(C)C)ccn1 [Compound I-6] : > 99%

Task: Dear colleague, please send me the reported inhibition at 1.11 µM for CC(=O)Nc1cc(-c2cnc(C)c3c2c(F)cn3S(=O)(=O)C2CC2)ccn1 [Compound I-14] when you can.
Result: > 99%

Task: Dear colleague, please send me the reported inhibition at 1.11 µM for COC(=O)Nc1cc(-c2cncc3c2ccn3S(=O)(=O)N(C)C)ccn1 [Compound I-17] when you can.
Result: > 99%

----------
pIC50: −log10 of the molar value.
Form: system (human VPS34 (Homo sapiens (Human))), quantity (pIC50), values below.

1. CCOC(=O)Nc1cc(-c2cncc3c2ccn3S(C)(=O)=O)ccn1 [Compound I-25] : > 8.00

Task: # return pIC50 for COC(=O)Nc1cc(-c2cncc3c2ccn3S(=O)(=O)C2CC2)ccn1 [Compound I-30] , test system: human VPS34 (Homo sapiens (Human))
Result: 7.30 to 8.00

Task: # return pIC50 for CC(=O)Nc1cc(-c2cnc(C)c3c2c(C)cn3S(C)(=O)=O)ccn1 [Compound I-5] , test system: human VPS34 (Homo sapiens (Human))
Result: 7.00 to 7.30

Task: # return pIC50 for CS(=O)(=O)n1ccc2c(-c3ccnc(Nc4ncco4)c3)cncc21 [Compound I-9] , test system: human VPS34 (Homo sapiens (Human))
Result: 7.30 to 8.00

Task: # return pIC50 for CC(=O)Nc1cc(-c2cnc(C)c3c2c(F)cn3S(=O)(=O)C2CC2)ccn1 [Compound I-14] , test system: human VPS34 (Homo sapiens (Human))
Result: 7.30 to 8.00

----------
Molecular target: human VPS34 (Homo sapiens (Human))
Assay: Human VPS34 enzyme assay (Adapta TR-FRET)
Format: biochemical
Conditions: 1 h; inhibition of VPS34 at a 1.11 μM concentration; read-out: Percent Inhibition
Description: VPS34 (accession number GB:BC033004) was cloned into pDEST20-Thombin as N-terminal GST tagged fusion proteins using the Gateway system (Invitrogen, catalog#11804-013). […] The plates are then incubated for 30 minutes at room temperature with shaking and then read on a BMG PheraStar Plus reader. For the assay methods described above, test compound percent inhibition, at various concentrations, is calculated relative to control (DMSO and EDTA) treated samples. […]
Here, each record is paired with measured inhibition at 1.11 µM data.

1) COC(=O)Nc1cc(-c2cnc(C)c3c2ccn3S(=O)(=O)C2CCCC2)ccn1 [Compound I-12] : > 99%
2) CC(=O)Nc1cc(-c2cnc(C)c3c2ccn3S(=O)(=O)C2CC2)ccn1 [Compound I-44] : > 99%
3) COC(=O)Nc1cc(-c2cncc3c2ccn3S(=O)(=O)c2ccccc2)ccn1 [Compound I-28] : > 99%

Here is the next item to consider.
Task: # return inhibition at 1.11 µM for CS(=O)(=O)n1ccc2c(-c3ccnc(N)c3)cncc21 [Compound I-32] , test system: human VPS34 (Homo sapiens (Human))
Result: 30%

All values here come from patent US10202373B2.
